experiment: Standard protocol for determination of kcat and KM (continuous spectrophotometric assay, Acetyl CoA hydrolysis at 235 nm); format: biochemical; settings: purified protein; about 23° C.; pH 6.8; 0.2 mM acetyl CoA; glyphosate 0.125 to 10 mM
Endpoint: Km (µM)
Please state the figure in µM; there is no need to write the unit.

{"columns": ["Molecule", "Endpoint", "Numeric value"],
 "data": [
  ["SEQ ID NO: 269: GAT polypeptide (protein, 10_12D7, GAT polypeptide) MIEVKPINAEDTYEIRHRILRPNQPLEACKYETDLLGGTLHLGGYYRGKLISIASFHQAEHPELEGQKQYQLRGMATLEEYREQKAGSTLIRHAEELLRKKGADLLWCNARTSASGYYKKLGFSEQGEVYDIPPTGPHILMYKKLT", "Km", 1800]
]}

Q: Given the entry SEQ ID NO: 460: GAT polypeptide (protein, 11_3B5, GAT polypeptide) MIEVKPINAEDTYELRHRILRPNQPIEACMFESDLLRGAFHLGGYYRGKLISIASFHQAEHSELQGQKQYQLRGMATLEGYRDQKAGSSLIRHAEQILRKRGADMLWCNARTSASGYYKKLGFSEQGEVFDTPPVGPHILMYKRIT , report its measured Km.
Result: 260

Cited source: patent US8008547B2
